Assay: soluble on expression in E. coli; label from the status in PepcDB or PDB records
observable: soluble on expression in E. coli

Before answering, review these 5 worked examples.
1) MVTPVSICNYISLPDDFPARNIAPQVKEVLKDFIDALSTIICDEEWRTSLNTNSATKKIFNNLDNLSYIQRTSFRGNDTLYNEKVQFKLTYPVKNGRHKENIEFQVVINLSPIYLDNFRHDGEINIFCAPNPKPVTMGRVFQTGVERVLFLFMNDFIEQFPMINLGAPIKRAHTPHIEPLPPDHHTAADYLRQFDLLVLNFISRGNFVILPRLWNNSEVHRWFVNKDPNLITAILDITDSELKEDLLQSLMDSLGSNKHVQPEVCICFLSLLAEQESPHFQDLFLFFANMLLHYHQFMNPNESDLNDVLMPASLSDDKIIKHMARRTLKLFVKNETPPKVTHEDLVKNRPRSPVRPPIPATAKTPDLPERH    not soluble
2) MGSDKIHHHHHHMTSTPHSPSEMFASIPGIFGFYPEESIVVLTLMHTKESCYQLGPVMRLDLKDLRYLSDIGDTLSAIEPDLVFGLIISGQKPEAIEDLRGLIEFVADCEIVPFDACWYTSAIESGGKYDAIWLNEAMTEAALEYQSWRKGRIPLIANTGITGEMIHAGHLPELSRKDIEKHYAQAEESEQWDEYLITERYAELFDDPSTSFRSAQECIDAFSQAVELMRTEKLITDAALTVAAFLKNKMSRDIIIECCVHNANTVKEALCYVSRHTKGFVRANALALYALCIVDSPWGNHITCVLQAAHNTLPFHHLTALVAEAYYRGLSGSIVDLVVSGSQEAQKHFGEATNVKSAV    not soluble
3) MAHHHHHHMNDERVLFLTSSTCITICENQIGIDVLLKTDILHNAVILCESANPDLAFEALSIISKIAYAANHQQICILISCNVIKALKKILNNMKIKPGARARACNALGNIGCETASEVELLIKNDVFPLLVDIFQTDNDFNTKIEAAYAVCACLSKANQKQVGYIISCTATTNRLGQNICMQLIADMLELVSESDPMNNGSVKLCKSILRGLENILDKGDDETRDLSLWENPYVFMFKEVQGDIKLFQMQFFPEYYVVNKTYDILAKYFSLTSTWNNRK    not soluble
4) MPYSSSGVGHNGFDKADLHIHTKCSDGLFTPEEIVHKAIHVGLKAISITDHDTVTGIDQAKPLALELGLELIPGVEMSSAYKGYDIHILGYFFDYQQSELKGYLDHCRLLRTERAERMVQKLAKMGVKIEIEQIIMKAQNGSVGRPHIAAVLQDEGFVKSFSEAFSKYLGSHSPAYVKSIETHPEEVIRLINEAGGLSFLAHPAQNVPDEILRQLISFGLDGLEIIHPSHDTYRQNYYREIANEYFLLFSGGSDYHGPKDHEDNFGQVWIPYEWVTKMKSRLAPAVKE    not soluble
5) GPGSMGTDKVMSEKLVLEKTKVKSLSDVQRLDMWGEGLTDISLVAKLPRLEVLALAANNVSSLKALQGCELLQELYLRKNKVANLREVTALRVLPTLSVLWLRDNPCAQHPYYREFVLHCCPGLRQLDGVEVTADERKAAAKRLTTKTLDEILGRSACADAASSPRPKKSSGAGSSPAKATDVTPSSTPGGVSDSTATIEERNASSRSVLFTTVAAQRAMLLSIVSLLSELTVESLELLQREVQERVEKQKEKLTKYVQENSQ    soluble

State the recorded soluble on expression in E. coli for this entry: `MNLIEKTREFAATFHEGEPSSHDMSHINRVEALCMEIQKEEGGDLLILSLAALLHDVGVIKEHEEGGDHALYSSEIAIEFLSRAGVEMKTIEAVAYCIQTHRFSGGKRPETVEARILQDADRLDALGAIGIFRSILSMGALRMLKHTTGLDKGSSKKTVYIEDPVEGFNEYMRYKPFTIPERLNTVTAKRIAGERLKIMHIYLEALNLEAGNGKHKPLEHHHHHH`
soluble

State the recorded soluble on expression in E. coli for this entry: `MSLKNIRHIYYVSENTGLLAKDSGKSLLCQFPGVEFQEELLPFIRTKDDAQRTINAIREKCGEEKPIIFSTIFDPEINKILQHEDVILLNICEPFLTQLEGMLGKNALRASGHSRNVDQQIMSNRVDAIHYTISHDDGTAIMDYEEADLIIVGVSRSGKTPISVFLATQMGIKTANYPLVEQDLTFCQLPEDIIKNKHKVVGLSISPDVLHTFREQRYKGSHYAQMSTCKRETLQSKRIFEKYDLPVVFSDARSIEETATQVAQELSKQWNPIFEGHHHHHH`
soluble

State the recorded soluble on expression in E. coli for this entry: `MKLNSPSRIHMGLIDLNGELGRVDGGVGVALDYPNFQIEGKESSEIELDSKIEIDEKDRENLESRIKNAARNVLDIIGEDGISLKINEAILSHSGLGSGTQVSLSTGKITSLVYGQDLNAETLAKITGRGGTSGIGVAAFETGGFIVDGGHTFGEGKDKIDFRPSSASKDVKPSPVLFRHDFDWDIVLTIPKGEQVCGDREVDIFRKFCPVPSEDVQKICRLVLMKMMPAVIEKDFNSFGMAVNELQNLGFKRAEVGLQKESLKQLLSKLQDVSYSGISSFGPTIYSLGDKDTITEISNEIFDKFGIDGEIISTKANNSGYEIIK`
not soluble

State the recorded soluble on expression in E. coli for this entry: `MGHHHHHHSHMDVVDPDIFNRDPRDHYDLLQRLGGGTYGEVFKARDKVSGDLVALKMVKMEPDDDVSTLQKEILILKTCRHANIVAYHGSYLWLQKLWICMEFCGAGSLQDIYQVTGSLSELQISYVCREVLQGLAYLHSQKKIHRDIKGANILINDAGEVRLADFGISAQIGATLARRLSFIGTPYWMAPEVAAVALKGGYNELCDIWSLGITAIELAELQPPLFDVHPLRVLFLMTKSGYQPPRLKEKGKWSAAFHNFIKVTLTKSPKKRPSATKMLSHQLVSQPGLNRGLILDLLDKLKNPGKGPSIGDIEDEEPELPPAIPRRIRSTHRSSSLGIPDADCCRRHMEFRKLRGMETRPPANTARLQPPRDLRSSSPRKQLSES`
soluble

---

Assay: soluble on expression in E. coli; label from the status in PepcDB or PDB records
observable: soluble on expression in E. coli

1) MPKPYIAINMADLKNEPKTFEMFSAVGPKVCMVTARHPGFVGFQNHVQIGVLPFGERFGGAKMDMTKESSTVRVLQYTMWKDWKDHEEMHRQNWSYLFRLCYSCASQMVWGPWEPIYEIKYADMPINTEMTDFTAVVGKKFAEGKPLEIPVISQPYGKRVVAFGEHTVIPGKEEQFEDAIIKTLEMFKRAPGFLGAMLLKEIGVSGIGSFQFGSKGFHQLLESPGSLEPDPNNVMYQAPEAKPTPPQYIVHVEWANLDALQFGMGRVLLSPEYREVHDEALDTLIYGPYIRIINPVMEGTFWREYLNE    soluble
2) MQMNSEKFFKLFRVGETVLVEYSGTSRAELLLYYIVNNSKLPIVVDDILDTYYEFYTRLKVAGFDVAPLENVQVIKMGGTKDIGRVIGRLNISKYVISEQEYMEIVSQLKDYPVINPVLGLHKLILLGNTFENINVVKMVSNYVGREERIAFYFVNRNVIEKHSSPILDLLEEVVTSILEITDSGIIIKKSIKDEIAGKIVSPLLNF    soluble
3) ALRGTVTDFSGFDGEADAEVLEKAMEGLGTDEDSILNLLTARSNAQRQQIAEEFETLFGRDLVNDMKSELTGKFEKLIVALMKPSRLYDAYELKHALKGAGTDEKVLTEIIASRTPEELRAIKQAYEEEYGSNLEDDVVGDTSGYYQRMLVVLLQANRDPDTAIDDAQVELDAQALFQAGELKWGTDEEEFITILGTRSVSHLRRVFDKYMTISGFQIEETIDRETSGNLENLLLAVVKSIRSIPAYLAETLYYAMKGAGTDDHTLIRVIVSRSEIDLFNIRKEFRKNFATSLYSMIKGDTSGDYKKALLLLSGGEDD    soluble

---

Test: soluble on expression in E. coli; label from the status in PepcDB or PDB records
observable: soluble on expression in E. coli

1) MNIQLSPLEARVIGCLIEKEVTTPDHYPLTLNSLTTACNQKSNREPVLNLSEAEVQDTVEGLIARRLVSDESSFNSRTSKYQHRFCNTEFGDLKLNQQELGLICCLLLRGAQTPGELRTRTNRLCTFTDVKETEAVLERLANRDSGALVVKLPREPGKRESRYHHLFCGEVDMAA    soluble
2) MIPLLAFAAWSGTGKTTLLKKLIPALCARGIRPGLIKHTHHDMDVDKPGKDSYELRKAGAAQTIVASQQRWALMTETPDEEELDLQFLASRMDTSKLDLILVEGFKHEEIAKIVLFRDGAGHRPEELVIDRHVIAVASDVPLNLDVALLDINDVEGLADFVVEWMQKQNG    soluble
